src = patent US20030215462A1

% of control metabolism, raloxifene G1 values by entry
# System: UGT enzymes of human liver microsomes
# ASSAY OVERVIEW: Inhibition of raloxifene glucuronidation (G1, G2) in human liver microsomes
# Type: biochemical
# CONDITIONS: raloxifene 50 μM; inhibitor 50 μM
MEASURE: % of control metabolism, raloxifene G1

>>> result("O=C(O)Cc1ccccc1Nc1c(Cl)cccc1Cl [Diclofenac, reference compound]")
"65 (1) %"
>>> result("O=C(OC[C@H]1O[C@@H](OC(=O)c2cc(O)c(O)c(OC(=O)c3cc(O)c(O)c(O)c3)c2)[C@H](OC(=O)c2cc(O)c(O)c(OC(=O)c3cc(O)c(O)c(O)c3)c2)[C@@H](OC(=O)c2cc(O)c(O)c(OC(=O)c3cc(O)c(O)c(O)c3)c2)[C@@H]1OC(=O)c1cc(O)c(O)c(OC(=O)c2cc(O)c(O)c(O)c2)c1)c1cc(O)c(O)c(OC(=O)c2cc(O)c(O)c(O)c2)c1")
"0 (0), 0 (0) %"
>>> result("O=C(O[C@@H]1Cc2c(O)cc(O)cc2O[C@@H]1c1ccc(O)c(O)c1)c1cc(O)c(O)c(O)c1 [Epicatechin gallate]")
"37 (3) %"
>>> result("CCCOC(=O)c1cc(O)c(O)c(O)c1 [Propyl gallate]")
"45 (6) %"

---

% of control metabolism, raloxifene G1 values by entry
# Test system: UGT enzymes of human liver microsomes
# ASSAY OVERVIEW: Inhibition of raloxifene glucuronidation (G1, G2) in human liver microsomes
# Assay type: biochemical
# CONDITIONS: raloxifene 50 μM; inhibitor 50 μM
MEASURE: % of control metabolism, raloxifene G1

>>> result("O=c1c(O)c(-c2ccc(O)c(O)c2)oc2cc(O)cc(O)c12")
"8 (1) %"
>>> result("O=C(O)c1cc(-c2ccc(F)cc2F)ccc1O [Diflunisal, reference compound]")
"43 (1) %"
>>> result("C#C[C@]1(O)CC[C@H]2[C@@H]3CCc4cc(O)ccc4[C@H]3CC[C@@]21C [17-α-Ethinylestradiol, 17-α-ethinylestradiol, reference compound]")
"42 (2) %"

---

% of control metabolism (SD, n = 3), raloxifene glucuronide G1 values by entry
# Test system: UGT enzymes of human liver microsomes
# ASSAY OVERVIEW: Inhibition of raloxifene glucuronidation (G1, G2) in human liver microsomes
# Assay type: biochemical
# CONDITIONS: G1; inhibitor 500 μM; raloxifene 50 μM, human liver microsomes 250 μg/ml, 15 min
MEASURE: % of control metabolism (SD, n = 3), raloxifene glucuronide G1

>>> result("O=C(O)c1ccccc1O")
"92 (2) %"
>>> result("CCCCCCCCCCCCOC(=O)c1cc(O)c(O)c(O)c1 [Lauryl gallate]")
"7 (0) %"
>>> result("O=C(O[C@@H]1Cc2c(O)cc(O)cc2O[C@H]1c1cc(O)c(O)c(O)c1)c1cc(O)c(O)c(O)c1 [Gallocatechin gallate]")
"0 (0) %"
>>> result("COc1ccc2cc(CCC(C)=O)ccc2c1")
"75 (2) %"
>>> result("CC(CCc1ccccc1)NCC(O)c1ccc(O)c(C(N)=O)c1 (stereo not drawn)")
"104 (11) %"
>>> result("CC/C(=C(/CC)c1ccc(O)cc1)c1ccc(O)cc1 [Diethylstilbestrol, reference compound]")
"0 (0) %"
>>> result("O=C(O)Cc1ccccc1Nc1c(Cl)cccc1Cl [Diclofenac, reference compound]")
"6 (1) %"
>>> result("CCCN(CCC)S(=O)(=O)c1ccc(C(=O)O)cc1 [Probenecid, reference compound]")
"70 (4) %"
>>> result("CC(=O)OC1CC(C)CCC1C(C)C (single isomer, unassigned; (-)) [(−)-Menthyl acetate]")
"76 (1) %"

---

# System: UGT enzymes of human liver microsomes
# ASSAY OVERVIEW: Inhibition of raloxifene glucuronidation (G1, G2) in human liver microsomes
# Format: biochemical
# CONDITIONS: liver lot 062101; inhibitor 50 μM
MEASURE: % of control metabolism, raloxifene G1

>>> result("O=C(O)c1cc(-c2ccc(F)cc2F)ccc1O [Diflunisal, reference compound]")
"67 (2) %"
>>> result("O=C(O[C@@H]1Cc2c(O)cc(O)cc2O[C@H]1c1cc(O)c(O)c(O)c1)c1cc(O)c(O)c(O)c1 [Gallocatechin gallate]")
"40 (3) %"
>>> result("O=c1c(O)c(-c2ccc(O)c(O)c2)oc2cc(O)cc(O)c12")
"34 (3) %"
>>> result("O=C(O[C@@H]1Cc2c(O)cc(O)cc2O[C@@H]1c1cc(O)c(O)c(O)c1)c1cc(O)c(O)c(O)c1 [Epigallocatechin gallate]")
"68 (2) %"
>>> result("CCCCCCCCOC(=O)c1cc(O)c(O)c(O)c1 [Octyl gallate]")
"55 (5) %"
>>> result("O=C(O[C@@H]1Cc2c(O)cc(O)cc2O[C@@H]1c1ccc(O)c(O)c1)c1cc(O)c(O)c(O)c1 [Epicatechin gallate]")
"63 (4) %"

---

activity at 15 min, 50 µM values by entry
# ASSAYED TARGET: UGT1A1 (Homo sapiens)
# Sequence (P22309 26-533): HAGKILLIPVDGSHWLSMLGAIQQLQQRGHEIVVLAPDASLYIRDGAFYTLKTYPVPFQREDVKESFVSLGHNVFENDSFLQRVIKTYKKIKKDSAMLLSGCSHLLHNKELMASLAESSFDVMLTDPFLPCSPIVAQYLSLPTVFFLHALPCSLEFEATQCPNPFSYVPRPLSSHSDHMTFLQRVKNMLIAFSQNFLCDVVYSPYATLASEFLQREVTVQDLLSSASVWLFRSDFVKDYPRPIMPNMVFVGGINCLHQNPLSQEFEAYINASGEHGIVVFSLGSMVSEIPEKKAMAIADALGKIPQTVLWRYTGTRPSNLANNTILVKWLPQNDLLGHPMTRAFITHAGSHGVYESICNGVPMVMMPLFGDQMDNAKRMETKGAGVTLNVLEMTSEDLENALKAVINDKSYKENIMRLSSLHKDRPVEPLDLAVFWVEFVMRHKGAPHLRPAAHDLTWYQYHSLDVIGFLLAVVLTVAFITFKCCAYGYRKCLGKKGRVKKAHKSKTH
# ASSAY OVERVIEW: Inhibition of raloxifene glucuronidation by recombinant UGT1A1 Supersomes
# CONDITIONS: human, Supersomes with recombinant human UGT1A1, pH 7.5, probe raloxifene 50 μM, formation of glucuronide G1, % of control metabolism, raloxifene G1, UGT1A1; inhibitor 50 μM
MEASURE: activity at 15 min, 50 µM (%)

>>> recorded_number("O=C(O[C@@H]1Cc2c(O)cc(O)cc2O[C@H]1c1cc(O)c(O)c(O)c1)c1cc(O)c(O)c(O)c1 [Gallocatechin gallate]")
30
>>> recorded_number("O=C(OC[C@H]1O[C@@H](OC(=O)c2cc(O)c(O)c(OC(=O)c3cc(O)c(O)c(O)c3)c2)[C@H](OC(=O)c2cc(O)c(O)c(OC(=O)c3cc(O)c(O)c(O)c3)c2)[C@@H](OC(=O)c2cc(O)c(O)c(OC(=O)c3cc(O)c(O)c(O)c3)c2)[C@@H]1OC(=O)c1cc(O)c(O)c(OC(=O)c2cc(O)c(O)c(O)c2)c1)c1cc(O)c(O)c(OC(=O)c2cc(O)c(O)c(O)c2)c1")
0.4
>>> recorded_number("CC/C(=C(/CC)c1ccc(O)cc1)c1ccc(O)cc1 [Diethylstilbestrol, reference compound]")
12
>>> recorded_number("CCCCCCCCOC(=O)c1cc(O)c(O)c(O)c1 [Octyl gallate]")
18

---

residual metabolism (% of control), 2ME2 MG1 values by entry
# Test system: UGT enzymes of human liver microsomes
# Construct: other: liver 062101
# ASSAY OVERVIEW: Inhibition of 2ME2 glucuronidation (MG1, MG2) in human liver microsomes
# Format: biochemical
# CONDITIONS: liver 062101; 2ME2 50 μM; inhibitor 100 μM
MEASURE: residual metabolism (% of control), 2ME2 MG1

>>> result("O=c1c(O)c(-c2ccc(O)c(O)c2)oc2cc(O)cc(O)c12")
"15 (0) %"
>>> result("O=C1C[C@@H](c2ccc(O)cc2)Oc2cc(O)cc(O)c21")
"21 (4) %"
>>> result("O=C(O[C@@H]1Cc2c(O)cc(O)cc2O[C@H]1c1cc(O)c(O)c(O)c1)c1cc(O)c(O)c(O)c1 [Gallocatechin gallate]")
"9 (1) %"
>>> result("O=C(O)c1cc(-c2ccc(F)cc2F)ccc1O [Diflunisal, reference compound]")
"49 (1) %"
>>> result("C#C[C@]1(O)CC[C@H]2[C@@H]3CCc4cc(O)ccc4[C@H]3CC[C@@]21C [17-α-Ethinylestradiol, 17-α-ethinylestradiol, reference compound]")
"48 (0) %"
>>> result("O=C(O[C@@H]1Cc2c(O)cc(O)cc2O[C@@H]1c1ccc(O)c(O)c1)c1cc(O)c(O)c(O)c1 [Epicatechin gallate]")
"17 (1) %"
>>> result("CC1CCC(C(C)C)C(O)C1 (centres unmarked)")
"92 (2) %"
>>> result("O=C(O[C@@H]1Cc2c(O)cc(O)cc2O[C@@H]1c1cc(O)c(O)c(O)c1)c1cc(O)c(O)c(O)c1 [Epigallocatechin gallate]")
"29 (1) %"
>>> result("CCCCCCCCOC(=O)c1cc(O)c(O)c(O)c1 [Octyl gallate]")
"51 (0) %"
>>> result("O=C(O)Cc1ccccc1Nc1c(Cl)cccc1Cl [Diclofenac, reference compound]")
"54 (1) %"
>>> result("O=C(c1ccc(OCCN2CCCCC2)cc1)c1c(-c2ccc(O)cc2)sc2cc(O)ccc12 [Raloxifene, raloxifene, reference compound]")
"24 (2) %"

---

# Test system: UGT enzymes of human liver microsomes
# ASSAY OVERVIEW: Inhibition of raloxifene glucuronidation (G1, G2) in human liver microsomes
# Format: biochemical
# CONDITIONS: liver lot 032101; inhibitor 50 μM
% of control metabolism, raloxifene G2 values by entry
MEASURE: % of control metabolism, raloxifene G2

>>> result("O=C(O[C@@H]1Cc2c(O)cc(O)cc2O[C@@H]1c1cc(O)c(O)c(O)c1)c1cc(O)c(O)c(O)c1 [Epigallocatechin gallate]")
"50 (2) %"
>>> result("O=c1c(O)c(-c2ccc(O)c(O)c2)oc2cc(O)cc(O)c12")
"35 (1) %"
>>> result("O=C(O[C@@H]1Cc2c(O)cc(O)cc2O[C@H]1c1cc(O)c(O)c(O)c1)c1cc(O)c(O)c(O)c1 [Gallocatechin gallate]")
"28 (0) %"
>>> result("CCCCCCCCOC(=O)c1cc(O)c(O)c(O)c1 [Octyl gallate]")
"59 (3) %"
>>> result("O=C(O[C@@H]1Cc2c(O)cc(O)cc2O[C@@H]1c1ccc(O)c(O)c1)c1cc(O)c(O)c(O)c1 [Epicatechin gallate]")
"45 (2) %"
>>> result("O=C(O)c1cc(-c2ccc(F)cc2F)ccc1O [Diflunisal, reference compound]")
"54 (0) %"
